Study the reported log10(Ki) values for Glutamate receptor 1 (Homo sapiens, UniProt P42261) given below; they originate from different publications.
Scale: log10; quantity: Ki; unit before log: nM

The following compounds have reported results that may help.
# query: log10(Ki) | item `Cc1nn(C[C@H](N)C(=O)O)c(=O)[nH]c1=O` | system: Glutamate receptor 1 (Homo sapiens, UniProt P42261)
2.38

# query: log10(Ki) | item CCCn1nnc(-c2onc(O)c2CC(N)C(=O)O)n1 (stereo not drawn) | system: Glutamate receptor 1 (Homo sapiens, UniProt P42261)
3.71

# query: log10(Ki) | item `CC(C)/C=C(\C[C@H](N)C(=O)O)C(=O)O` | system: Glutamate receptor 1 (Homo sapiens, UniProt P42261)
2.85

# query: log10(Ki) | item `N[C@@H](Cn1ncc(=O)[nH]c1=O)C(=O)O` | system: Glutamate receptor 1 (Homo sapiens, UniProt P42261)
2.21

Next:
# query: log10(Ki) | item `N[C@@H](Cn1nc(Br)c(=O)[nH]c1=O)C(=O)O` | system: Glutamate receptor 1 (Homo sapiens, UniProt P42261)
1.46

# query: log10(Ki) | item CCn1nnc(-c2o[nH]c(=O)c2CC(N)C(=O)O)n1 (stereo not drawn) | system: Glutamate receptor 1 (Homo sapiens, UniProt P42261)
2.16
